Origin of the recorded values: patent US4200575A

minimal inhibitory concentration (M.I.C.) reference
- Tested on: S. marcescens IFO 12648
- test summary: Minimal inhibitory concentration (M.I.C.), agar dilution method
- Format: cell-based, Serratia marcescens
- settings: TSA, inoculum 10^7 /ml
Write no unit; give the number alone.

For CNC(=O)O/N=C(\C(=O)NC1C(=O)N2C(C(=O)O)=C(CSc3nnc(C)o3)CSC12)c1csc(=N)[nH]1 (stereo not shown) the compound record lists minimal inhibitory concentration (M.I.C.) as 6.25

For CCNC(=O)O/N=C(\C(=O)NC1C(=O)N2C(C(=O)O)=C(COC(C)=O)CSC12)c1csc(=N)[nH]1 (stereo not shown) the compound record lists minimal inhibitory concentration (M.I.C.) as 6.25

----------
minimal inhibitory concentration (M.I.C.) reference
- Tested on: S. marcescens IFO 12648
- test summary: Minimal inhibitory concentration (M.I.C.), agar dilution method
- Type: cell-based, Serratia marcescens
- settings: TSA, inoculum 10^7 /ml

compound="CCCCNC(=O)O/N=C(\\C(=O)NC1C(=O)N2C(C(=O)O)=C(COC(C)=O)CSC12)c1csc(=N)[nH]1 (stereo not drawn)" meas_value=6.25
compound="CCCCNC(=O)O/N=C(\\C(=O)NC1C(=O)N2C(C(=O)O)=C(CSc3nnnn3C)CSC12)c1csc(=N)[nH]1 (stereo not drawn)" meas_value=6.25
compound="CNC(=O)O/N=C(\\C(=O)NC1C(=O)N2C(C(=O)O)=C(CSc3nc(C)ns3)CSC12)c1csc(=N)[nH]1 (stereo not drawn)" meas_value=6.25
compound="CNC(=O)O/N=C(\\C(=O)NC1C(=O)N2C(C(=O)O)=C(CSc3nnc(CO)n3C)CSC12)c1csc(=N)[nH]1 (stereo not drawn)" meas_value=3.13
compound="CNC(=O)O/N=C(\\C(=O)NC1C(=O)N2C(C(=O)O)=C(CSc3nnnn3CCO)CSC12)c1csc(=N)[nH]1 (stereo not drawn)" meas_value=3.13

Now look at this one.
For CNC(=O)O/N=C(\C(=O)NC1C(=O)N2C(C(=O)O)=C(CSc3nc(CC(=O)O)cs3)CSC12)c1csc(=N)[nH]1 (stereo not drawn) the compound record lists minimal inhibitory concentration (M.I.C.) as 3.13

----------
minimal inhibitory concentration (M.I.C.) reference
- System: E. coli 0-111
- test summary: Minimal inhibitory concentration (M.I.C.), agar dilution method
- Format: cell-based, Escherichia coli
- settings: TSA, inoculum 10^7 /ml
Write no unit; give the number alone.

Below: 4 compounds and their reported minimal inhibitory concentration (M.I.C.).
compound="CCNC(=O)O/N=C(\\C(=O)NC1C(=O)N2C(C(=O)O)=C(CSc3nnnn3C)CSC12)c1csc(=N)[nH]1 (centres unmarked) [Example II - 9]" meas_value=0.05
compound="CC(C)NC(=O)O/N=C(\\C(=O)NC1C(=O)N2C(C(=O)O)=C(COC(N)=O)CSC12)c1csc(=N)[nH]1 (centres unmarked) [Example II - 17]" meas_value=0.05
compound="Cc1nnc(SCC2=C(C(=O)[O-])N3C(=O)C(NC(=O)Cn4cnnn4)[C@H]3SC2)s1.[Na+] (some centres unmarked) [Cefazolin, reference compound]" meas_value=1.56
compound="CCNC(=O)O/N=C(\\C(=O)NC1C(=O)N2C(C(=O)O)=C(COC(C)=O)CSC12)c1csc(=N)[nH]1 (centres unmarked) [Example II - 7]" meas_value=0.024

For CC1=C(C(=O)O)N2C(=O)C(NC(=O)/C(=N\OC(=O)NC(C)C)c3csc(=N)[nH]3)C2SC1 (centres unmarked) [Example II - 19] the compound record lists minimal inhibitory concentration (M.I.C.) as 3.13
